For each of the molecules below, state its Activity of mutant relative to wild-type Gaussia luciferase without the signal peptide.
ASSAY DETAILS: Luminescence activity assay of purified Gaussia luciferase mutants on coelenterazine
Assay type: biochemical
Design: key: ratio of mutant luminescence intensity to wild-type Gaussia luciferase
MEASUREMENT PARAMETERS: Substrate CTZ (Table 16)
Output spec: single numeric token, no unit.

query: Recorded Activity of mutant relative to wild-type Gaussia luciferase without the signal peptide of K66N H79K P84L S103T E110A D123N L124M E128G V138E: Gaussia luciferase mutant (protein, SIGNAL (1)..(17), Gaussia luciferase mutant) MGVKVLFALICIAVAEAKPTENNEDFNIVAVASNFATTDLDADRGKLPGKKLPLEVLKEMEANARNAGCTRGCLICLSKIKCTLKMKKFIPGRCHTYEGDKETAQGGIGAAIVDIPEIPGFKNMEPMGQFIAQVDLCEDCTTGCLKGLANVQCSDLLKKWLPQRCATFASKIQGQVDKIKGAGGD , please.
result: 1.111

query: Moving on to A42G Q152K S170S G174N Q175E K178S A182Y G183A: Gaussia luciferase mutant (protein, SIGNAL (1)..(17), Gaussia luciferase mutant) MGVKVLFALICIAVAEAKPTENNEDFNIVAVASNFATTDLDGDRGKLPGKKLPLEVLKEMEANARKAGCTRGCLICLSHIKCTPKMKKFIPGRCHTYEGDKESAQGGIGEAIVDIPEIPGFKDLEPMEQFIAQVDLCVDCTTGCLKGLANVKCSDLLKKWLPQRCATFASKIQNEVDSIKGYAGD
result: 0.736

query: Can you check Q163T T167S S170V G174N K178N A182Y G183A: Gaussia luciferase mutant (protein, SIGNAL (1)..(17), Gaussia luciferase mutant) MGVKVLFALICIAVAEAKPTENNEDFNIVAVASNFATTDLDADRGKLPGKKLPLEVLKEMEANARKAGCTRGCLICLSHIKCTPKMKKFIPGRCHTYEGDKESAQGGIGEAIVDIPEIPGFKDLEPMEQFIAQVDLCVDCTTGCLKGLANVQCSDLLKKWLPTRCASFAVKIQNQVDNIKGYAGD next?
result: 0.170

query: And then P84K E102A: Gaussia luciferase mutant (protein, SIGNAL (1)..(17), Gaussia luciferase mutant) MGVKVLFALICIAVAEAKPTENNEDFNIVAVASNFATTDLDADRGKLPGKKLPLEVLKEMEANARKAGCTRGCLICLSHIKCTKKMKKFIPGRCHTYEGDKASAQGGIGEAIVDIPEIPGFKDLEPMEQFIAQVDLCVDCTTGCLKGLANVQCSDLLKKWLPQRCATFASKIQGQVDKIKGAGGD , what is it?
result: 0.000

query: Again, but for F26G N27D V29L A30V V31I A32G S33D A36W T37S: Gaussia luciferase mutant (protein, SIGNAL (1)..(17), Gaussia luciferase mutant) MGVKVLFALICIAVAEAKPTENNEDGDILVIGDNFWSTDLDADRGKLPGKKLPLEVLKEMEANARKAGCTRGCLICLSHIKCTPKMKKFIPGRCHTYEGDKESAQGGIGEAIVDIPEIPGFKDLEPMEQFIAQVDLCVDCTTGCLKGLANVQCSDLLKKWLPQRCATFASKIQGQVDKIKGAGGD
result: 0.038
